# target.or.system: human FLAP (Homo sapiens (Human), UniProt P20292)
# Sequence (P20292 whole entry): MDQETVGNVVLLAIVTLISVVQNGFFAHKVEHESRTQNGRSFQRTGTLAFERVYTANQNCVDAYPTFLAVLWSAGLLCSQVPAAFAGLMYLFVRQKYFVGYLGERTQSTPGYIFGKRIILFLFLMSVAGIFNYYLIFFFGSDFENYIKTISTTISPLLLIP
# experiment.description: FLAP binding assay (HTRF format)
# study.conditions: human FLAP wild type, HTRF format; average of two plates, duplicates
pKi: −log10 of the molar value. Where a name gives a salt, the structure may show the parent alone.
Respond with class 1 for pKi values of 8 and above, class 0 for values below.

Would you please look over these solved cases?
molecule | category.label
Nc1ccc(-c2ccc(-c3ccccc3S(=O)(=O)N3CCS(=O)(=O)CC3)cc2F)cn1 [Example 354] | class 0
Nc1cnc(-c2ccc(-c3ccccc3S(=O)(=O)N3CCNCC3)cc2F)cn1 [Example 46] | class 0

query: For this molecule, is measured pKi 8 or higher? Nc1ncc(-c2ccc(-c3ccccc3S(=O)(=O)N3CCNC(=O)C3)cc2F)cn1 [Example 306, trifluoroacetic acid salt]
result: class 0

query: Decide: is the reported value of pKi for CCS(=O)(=O)c1ccccc1-c1ccc(-c2cnc(N)cn2)c(F)c1 [Example 191] equal to or greater than 8?
result: class 0

query: Reported pKi reaches at least 8 for CCN(CC)S(=O)(=O)c1ccccc1-c1ccc(-c2ccc(N)nc2)c(F)c1 [Example 343] ?
result: class 1

query: # bool: pKi of CC(C)(C)S(=O)(=O)c1ccccc1-c1ccc(-c2cnc(N)nc2)c(F)c1 [Example 293, trifluoroacetic acid salt] >= 8
result: class 0

query: Does CC[C@@H](CO)NS(=O)(=O)c1ccccc1-c1ccc(-c2cnc(N)nc2)c(F)c1 [Example 248] have a reported pKi of at least 8?
result: class 0

query: Reported pKi reaches at least 8 for Nc1ccc(-c2ccc(-c3ccccc3S(=O)(=O)N3CCCCC3)cc2F)cn1 [Example 345] ?
result: class 0

query: Exam item: decide whether the reported pKi for CSCc1ccccc1-c1ccc(-c2cnc(N)cn2)c(F)c1 [Example 235, hydrochloride] is at least 8.
result: class 0

query: Textbook exercise: given the entry Nc1ccc(-c2ccc(-c3ccccc3S(=O)(=O)NCC3(O)CNC3)cc2F)cn1 [Example 358] , state whether its pKi is greater than or equal to 8.
result: class 0

query: For this molecule, is measured pKi 8 or higher? O=S1(=O)CCN(S(=O)(=O)c2ccccc2-c2ccc(-c3cnc4c(c3)OCCN4)c(F)c2)CC1 [Example 392]
result: class 1

query: Hi team, for CNS(=O)(=O)Cc1ccccc1-c1ccc(-c2cnc(N)cn2)c(F)c1 [Example 220, formic acid salt] , is the recorded pKi at or above 8?
result: class 0

====

# target.or.system: human FLAP (Homo sapiens (Human))
# experiment.description: FLAP binding assay (HTRF format)
# study.conditions: wild type FLAP, HTRF format
observed.property: Ki (nM)
Numbers only, in nM.

compound | Ki, nM
CC(C)(C)NS(=O)(=O)c1ccccc1-c1ccc(-c2cnc(N)c(Br)n2)c(F)c1 [Example 442] | 1
C[C@@H](CO)NC(=O)c1cc(C(F)(F)F)ccc1-c1ccc(-c2cnc(N)cn2)c(F)c1 [Example 786] | 60.7

query: Output reported Ki of the compound CC(C)(C)NS(=O)(=O)c1ccccc1-c1ccc(-c2cn3c(N)cccc3n2)c(F)c1 [Example 581] on human FLAP (Homo sapiens (Human)).
result: 60

====

# target.or.system: human FLAP (Homo sapiens (Human))
# experiment.description: FLAP binding assay (HTRF format)
# study.conditions: read-out: FLAP Binding wild type HTRF Ki
Structures can show the parent of a compound that is named as a salt.
Would you mind telling me the reported Ki of each entry?
One number for each entry, in nM.

compound | target.or.system | Ki [nM]
CCNS(=O)(=O)Cc1ccccc1-c1ccc(-c2cnc(N)cn2)c(F)c1 [Example 231, formate salt] | human FLAP (Homo sapiens (Human)) | 135
Nc1ncc(-c2ccc(-c3ccccc3S(=O)(=O)N[C@@H]3CCCNC3=O)cc2F)cn1 [Example 266, trifluoroacetic acid salt] | human FLAP (Homo sapiens (Human)) | 184

query: Supply recorded Ki for CC(C)(NS(=O)(=O)c1ccccc1-c1ccc(-c2cnc(N)cn2)c(F)c1)C(F)(F)F here.
result: 1
